# subject_of_test: Aminopeptidase N (Homo sapiens, UniProt P15144)
# Sequence (P15144 whole entry): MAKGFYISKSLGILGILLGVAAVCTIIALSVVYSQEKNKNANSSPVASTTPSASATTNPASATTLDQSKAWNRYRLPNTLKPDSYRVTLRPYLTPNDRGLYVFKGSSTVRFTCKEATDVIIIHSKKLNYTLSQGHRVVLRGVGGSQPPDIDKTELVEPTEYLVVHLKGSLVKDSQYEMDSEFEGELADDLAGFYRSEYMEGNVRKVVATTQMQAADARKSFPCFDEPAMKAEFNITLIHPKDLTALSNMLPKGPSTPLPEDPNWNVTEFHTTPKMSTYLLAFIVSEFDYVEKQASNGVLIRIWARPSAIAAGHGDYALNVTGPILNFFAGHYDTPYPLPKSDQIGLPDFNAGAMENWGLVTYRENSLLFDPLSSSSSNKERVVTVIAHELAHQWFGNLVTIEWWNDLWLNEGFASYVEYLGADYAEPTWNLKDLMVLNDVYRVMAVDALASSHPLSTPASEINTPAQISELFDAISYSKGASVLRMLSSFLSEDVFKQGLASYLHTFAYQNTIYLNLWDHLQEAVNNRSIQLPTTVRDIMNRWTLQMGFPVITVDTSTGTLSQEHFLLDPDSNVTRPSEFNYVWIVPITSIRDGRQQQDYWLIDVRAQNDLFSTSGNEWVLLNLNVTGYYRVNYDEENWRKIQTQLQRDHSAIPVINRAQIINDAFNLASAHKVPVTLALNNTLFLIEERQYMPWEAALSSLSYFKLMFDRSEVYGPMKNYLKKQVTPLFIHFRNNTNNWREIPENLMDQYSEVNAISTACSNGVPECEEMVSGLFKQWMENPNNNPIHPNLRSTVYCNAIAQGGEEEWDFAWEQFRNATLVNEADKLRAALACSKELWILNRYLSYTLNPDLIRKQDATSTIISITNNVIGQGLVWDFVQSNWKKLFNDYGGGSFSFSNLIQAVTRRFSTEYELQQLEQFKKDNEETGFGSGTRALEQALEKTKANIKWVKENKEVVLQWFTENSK
Known pKi of a selection of molecules
Formally, pKi is defined as -log10 of the concentration c, with c in mol/L.

molecule	pKi
Cl.NC1CCc2cccc(-c3ccccc3)c2CC1=O (configuration not stated)	7.96

Proceed to the following item.
## Task Write down the reported pKi of NC1CCc2ccccc2CC1=O (configuration not stated) , test system: Aminopeptidase N (Homo sapiens, UniProt P15144).
## Result 5.70

###

Each record here notes measured CC50 at 24 h.
# assay_overview: Cytotoxicity against human HUVEC cells assessed as concentration of compound causing 50% cell death after 24 hrs
# Type: cell-based
# run_parameters: read-out: Activity
Record the value in µM, omitting the unit from your answer.

compound	CC50 at 24 h / µM
NC1CCc2ccccc2CC1=O (stereo not drawn)	100
Cl.NC1CCc2cccc(-c3ccccc3)c2CC1=O (stereo not drawn)	20

Turning now to a further record.
## Task What CC50 at 24 h value was documented for this compound, NC1CCc2c(Br)ccc(-c3ccccc3)c2CC1=O (stereo not drawn) ?
## Result 10

src = ChEMBL document CHEMBL2346567
